Reference for the values: patent US20260116991A1

# experimental.target: T1, monkey GPC3-His protein (monkey)
# T1 construct: Bought protein; also called monkey GPC3 protein
# method: ELISA, monkey GPC3-His coated; antibody 0.28 nM
Label fulfilled for high-side OD450 nm (at or above 1) and not fulfilled for low-side OD450 nm (below it).

These solved cases illustrate the format of a correct answer.
binder: hAb007LH1L1d (antibody, human IgG1, V domains shown, Humanized F3.81.19, H1+L1d) VH: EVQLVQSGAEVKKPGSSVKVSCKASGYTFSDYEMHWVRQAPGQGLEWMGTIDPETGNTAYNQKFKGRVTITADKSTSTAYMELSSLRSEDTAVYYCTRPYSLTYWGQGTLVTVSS VL: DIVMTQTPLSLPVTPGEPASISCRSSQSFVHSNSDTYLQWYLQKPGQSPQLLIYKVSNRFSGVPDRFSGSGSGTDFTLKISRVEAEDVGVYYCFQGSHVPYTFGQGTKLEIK
qualitative.label: not fulfilled
//
binder: hAb007LH1L1c (antibody, human IgG1, V domains shown, Humanized F3.81.19, H1+L1c) VH: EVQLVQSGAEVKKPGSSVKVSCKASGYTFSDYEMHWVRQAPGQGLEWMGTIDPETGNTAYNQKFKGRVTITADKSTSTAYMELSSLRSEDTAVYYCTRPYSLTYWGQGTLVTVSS VL: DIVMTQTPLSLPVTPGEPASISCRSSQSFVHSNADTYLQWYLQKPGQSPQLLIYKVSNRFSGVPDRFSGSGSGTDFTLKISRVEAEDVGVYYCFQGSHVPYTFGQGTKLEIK
qualitative.label: not fulfilled
//
binder: hAb006LH3L1e (antibody, human IgG1, V domains shown, Humanized F3.38.7, H3+L1e) VH: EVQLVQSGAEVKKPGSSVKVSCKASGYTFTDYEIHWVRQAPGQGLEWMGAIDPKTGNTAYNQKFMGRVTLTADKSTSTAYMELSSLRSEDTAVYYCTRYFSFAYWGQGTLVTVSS VL: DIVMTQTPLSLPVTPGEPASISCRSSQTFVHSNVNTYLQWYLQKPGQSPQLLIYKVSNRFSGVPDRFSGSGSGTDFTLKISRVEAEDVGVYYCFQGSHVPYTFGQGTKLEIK
qualitative.label: fulfilled
//
binder: hAb006LH3L1c (antibody, human IgG1, V domains shown, Humanized F3.38.7, H3+L1c) VH: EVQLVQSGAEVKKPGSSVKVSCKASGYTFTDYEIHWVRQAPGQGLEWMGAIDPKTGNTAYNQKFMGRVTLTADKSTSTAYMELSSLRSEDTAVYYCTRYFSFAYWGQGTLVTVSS VL: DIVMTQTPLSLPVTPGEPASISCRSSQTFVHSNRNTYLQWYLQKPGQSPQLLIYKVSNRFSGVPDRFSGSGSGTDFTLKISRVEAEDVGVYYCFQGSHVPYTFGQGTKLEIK
qualitative.label: fulfilled
//
binder: hAb006LH3L1d (antibody, human IgG1, V domains shown, Humanized F3.38.7, H3+L1d) VH: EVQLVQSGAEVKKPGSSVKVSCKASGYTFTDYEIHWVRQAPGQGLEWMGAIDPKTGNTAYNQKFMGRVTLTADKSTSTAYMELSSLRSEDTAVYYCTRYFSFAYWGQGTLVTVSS VL: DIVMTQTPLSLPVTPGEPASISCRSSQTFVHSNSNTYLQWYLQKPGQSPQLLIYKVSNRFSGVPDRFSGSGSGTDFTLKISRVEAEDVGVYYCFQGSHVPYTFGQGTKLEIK
qualitative.label: fulfilled

Prompt: Decide: is the reported value of OD450 nm for hAb007LH1L1e (antibody, human IgG1, V domains shown, Humanized F3.81.19, H1+L1e) VH: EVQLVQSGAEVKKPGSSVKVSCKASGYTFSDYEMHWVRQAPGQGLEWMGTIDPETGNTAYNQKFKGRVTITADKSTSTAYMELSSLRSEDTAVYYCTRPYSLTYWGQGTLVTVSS VL: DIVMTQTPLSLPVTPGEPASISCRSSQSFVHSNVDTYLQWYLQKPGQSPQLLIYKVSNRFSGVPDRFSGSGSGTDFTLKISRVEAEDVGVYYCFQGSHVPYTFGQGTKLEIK equal to or greater than 1?
Response: not fulfilled
